test system: Colletotrichum musae; assay: Antifungal activity against Colletotrichum musae assessed as reduction in colony diameter at 10 to 160 g/l incubated for 15 min followed by compound washout measured after 7 days in absence of surfactant APSA 80 relative to control; assay type: functional; design: scale not given: the % may be the effect or the level left
readout name: Activity (%)
One number for each entry, in %.

Example cases with answers are listed next.
compound: [Ca+2].[Cl-].[Cl-] [CALCIUM CHLORIDE]
Activity (%): 0
//
compound: O=C([O-])O.[Na+] [SODIUM BICARBONATE]
Activity (%): 18
//
compound: [Na+].[O-]Cl [SODIUM HYPOCHLORITE]
Activity (%): 13
//
compound: O=C([O-])[O-].[Na+].[Na+] [SODIUM CARBONATE]
Activity (%): 40

Next compound, please.
[ask] Find the recorded Activity belonging to [Cl-].[Na+] [SODIUM CHLORIDE] and report it.
[reply] 83

###

system: Lasiodiplodia theobromae; assay: Antifungal activity against Lasiodiplodia theobromae infected Cavendish banana fruit assessed as reduction in crown rot incubated for 15 min followed by compound washout measured after 2 weeks in presence of surfactant APSA 80 relative to control; assay type: functional; design: concentration or dose not given beside the values
readout name: Activity (%)
Numbers only, in %.

Example cases with answers are listed next.
compound: [Ca+2].[Cl-].[Cl-] [CALCIUM CHLORIDE]
readout name: Activity
unit label: %
endpoint result: 50

compound: O=C([O-])O.[Na+] [SODIUM BICARBONATE]
readout name: Activity
unit label: %
endpoint result: 0

compound: O=C([O-])[O-].[Na+].[Na+] [SODIUM CARBONATE]
readout name: Activity
unit label: %
endpoint result: 25

compound: [Cl-].[Na+] [SODIUM CHLORIDE]
readout name: Activity
unit label: %
endpoint result: 10

Next compound, please.
[ask] Find the recorded Activity belonging to [Na+].[O-]Cl [SODIUM HYPOCHLORITE] and report it.
[reply] 50

###

test system: Fusarium verticillioides; assay: Growth inhibition of Fusarium verticillioides assessed as inhibition of mycelial growth up to 160 g/l incubated for 15 min followed by compound washout measured after 7 days in absence of surfactant APSA 80; assay type: functional
Active and inactive are the calls of the source. The calls are words filed in the database; no cut-off is given here.
readout name: Activity

Example cases with answers are listed next.
compound: O=C([O-])[O-].[Na+].[Na+]
Activity: inactive
--
compound: [Na+].[O-]Cl [SODIUM HYPOCHLORITE]
Activity: 50 g/L
--
compound: O=C([O-])O.[Na+]
Activity: inactive
--
compound: [Cl-].[Na+] [SODIUM CHLORIDE]
Activity: inactive

Next compound, please.
[ask] Find the recorded Activity belonging to [Ca+2].[Cl-].[Cl-] [CALCIUM CHLORIDE] and report it.
[reply] inactive

###

system: Lasiodiplodia theobromae; experiment: Antifungal activity against Lasiodiplodia theobromae assessed as reduction in colony diameter at 10 to 160 g/l incubated for 15 min followed by compound washout measured after 7 days in presence of surfactant APSA 80 relative to control; type: functional; set-up: scale not given: the % may be the effect or the level left
For each record, write down the corresponding Activity.
Numbers only, in %.

compound: O=C([O-])O.[Na+] [SODIUM BICARBONATE]
Activity (%): 72
//
compound: O=C([O-])[O-].[Na+].[Na+] [SODIUM CARBONATE]
Activity (%): 91
//
compound: [Ca+2].[Cl-].[Cl-] [CALCIUM CHLORIDE]
Activity (%): 87
//
compound: [Na+].[O-]Cl [SODIUM HYPOCHLORITE]
Activity (%): 92

[ask] Find the recorded Activity belonging to [Cl-].[Na+] [SODIUM CHLORIDE] and report it.
[reply] 94
